Sourced from the NIST ThermoML archive (doi:10.1016/j.jct.2013.10.017)

# TEST_NAME: activity coefficient (dimensionless); of the first substance listed, at infinite dilution; xn = mol fraction of the nth substance listed
# MEASUREMENT_SETUP: 323.15 K; 100 kPa; Liquid; Chromatography; x1 = 0
PROPERTY: activity coefficient

Examples with answers:
- MOLECULE: "CCCCCCCC [octane] + CCn1cc[n+](C)c1.COCCOCCOS(=O)(=O)[O-]"
  activity coefficient: 212
- MOLECULE: "C#CCCCCCCC [1-nonyne] + CCn1cc[n+](C)c1.COCCOCCOS(=O)(=O)[O-]"
  activity coefficient: 25.7
- MOLECULE: "CC1CCCCC1 [methylcyclohexane] + CCn1cc[n+](C)c1.COCCOCCOS(=O)(=O)[O-]"
  activity coefficient: 65.8
- MOLECULE: "CO [methanol] + CCn1cc[n+](C)c1.COCCOCCOS(=O)(=O)[O-]"
  activity coefficient: 0.374
- MOLECULE: "C#CCCC [1-pentyne] + CCn1cc[n+](C)c1.COCCOCCOS(=O)(=O)[O-]"
  activity coefficient: 3.98
- MOLECULE: "C=CCCCC [hex-1-ene] + CCn1cc[n+](C)c1.COCCOCCOS(=O)(=O)[O-]"
  activity coefficient: 43.4

(I) C#CCCCCCC [1-octyne] + CCn1cc[n+](C)c1.COCCOCCOS(=O)(=O)[O-]
(II) C#CCCCC [1-hexyne] + CCn1cc[n+](C)c1.COCCOCCOS(=O)(=O)[O-]
**Q:** Exercise: compare I and II ; which one has the greater activity coefficient? Response format: the label of the selected entry.
**A:** I
(I: 17.1, II: 6.49)

###

# TEST_NAME: activity coefficient (dimensionless); of the first substance listed, at infinite dilution; xn = mol fraction of the nth substance listed
# MEASUREMENT_SETUP: 323.15 K; 100 kPa; Liquid; Chromatography; x1 = 0
PROPERTY: activity coefficient

- COMPOUND: "CCO [ethanol] + CCn1cc[n+](C)c1.COCCOCCOS(=O)(=O)[O-]"
  PROPERTY: "activity coefficient"
  RESULT_NUMBER: 0.664
- COMPOUND: "CCC(C)=O [butanone] + CCn1cc[n+](C)c1.COCCOCCOS(=O)(=O)[O-]"
  PROPERTY: "activity coefficient"
  RESULT_NUMBER: 2.37
- COMPOUND: "C=CCCCCC [1-heptene] + CCn1cc[n+](C)c1.COCCOCCOS(=O)(=O)[O-]"
  PROPERTY: "activity coefficient"
  RESULT_NUMBER: 68.6
- COMPOUND: "CCCCCC [hexane] + CCn1cc[n+](C)c1.COCCOCCOS(=O)(=O)[O-]"
  PROPERTY: "activity coefficient"
  RESULT_NUMBER: 94
- COMPOUND: "C=CCCCCCCC [1-nonene] + CCn1cc[n+](C)c1.COCCOCCOS(=O)(=O)[O-]"
  PROPERTY: "activity coefficient"
  RESULT_NUMBER: 160
- COMPOUND: "C1CCCCC1 [cyclohexane] + CCn1cc[n+](C)c1.COCCOCCOS(=O)(=O)[O-]"
  PROPERTY: "activity coefficient"
  RESULT_NUMBER: 41.5

(a) C#CCCCCC [1-heptyne] + CCn1cc[n+](C)c1.COCCOCCOS(=O)(=O)[O-]
(b) C1CCCCCCC1 [cyclooctane] + CCn1cc[n+](C)c1.COCCOCCOS(=O)(=O)[O-]
**Q:** Higher activity coefficient: a or b ? Which one? Tell me its label.
**A:** b

(P) c1ccccc1 [benzene] + CCn1cc[n+](C)c1.COCCOCCOS(=O)(=O)[O-]
(Q) C=CCCC [1-pentene] + CCn1cc[n+](C)c1.COCCOCCOS(=O)(=O)[O-]
(R) CCCCCCC [heptane] + CCn1cc[n+](C)c1.COCCOCCOS(=O)(=O)[O-]
(S) CCc1ccccc1 [ethylbenzene] + CCn1cc[n+](C)c1.COCCOCCOS(=O)(=O)[O-]
(T) CCCO [propan-1-ol] + CCn1cc[n+](C)c1.COCCOCCOS(=O)(=O)[O-]
**Q:** Rank the items in ascending order with respect to activity coefficient. Note for the reader: the ranking is given by listing the labels in the order requested.
**A:** T, P, S, Q, R
(T: 0.942, P: 2.41, S: 8.06, Q: 26.3, R: 147)

(a) C=CCCCCCC [oct-1-ene] + CCn1cc[n+](C)c1.COCCOCCOS(=O)(=O)[O-]
(b) C1CCCCCC1 [cycloheptane] + CCn1cc[n+](C)c1.COCCOCCOS(=O)(=O)[O-]
(c) C1CCCC1 [cyclopentane] + CCn1cc[n+](C)c1.COCCOCCOS(=O)(=O)[O-]
(d) CCCCCCCCC [nonane] + CCn1cc[n+](C)c1.COCCOCCOS(=O)(=O)[O-]
**Q:** Put the entries in order of activity coefficient, starting with the largest number. Enter labels, ranked according to the request.
**A:** d, a, b, c
(d: 288, a: 107, b: 54.1, c: 24.1)
